Test system: 485368-065-R4-J2-PDC spheroids with HUVEC/MSC, viability;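 further: spheroids exposed to compounds for seven days; 100% = DMSO vehicle control wells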
Assay: Anticancer human tumor 485368-065-R4-J2-PDC patient-derived pancreatic carcinoma cell line growth inhibition [CLK]
Settings: second compound 3.16 µM; first compound 0.1 µM; stronger effect = lower value
measured.attribute: viability, T/C (%)
Answer format: numeric, % implied, no suffix.

>  <molecule>
C=CC(=O)N1CCN(c2nc(=O)n(-c3c(C)ccnc3C(C)C)c3nc(-c4c(O)cccc4F)c(F)cc23)C(C)C1 (stereo unspecified) + CN1CCN(c2cc(C(=O)Nc3cc4cc(-c5cnn(C)c5)ccc4cn3)ccn2)CC1

>  <viability, T/C, %>
2.65

$$$$
>  <molecule>
COc1c(OCCCN2CCOCC2)ccc2c3n(c(=NC(=O)c4cnc(N)nc4)nc12)CCN3 + CN1CCN(c2cc(C(=O)Nc3cc4cc(-c5cnn(C)c5)ccc4cn3)ccn2)CC1

>  <viability, T/C, %>
1.95

$$$$
>  <molecule>
O=C(c1cc(Cc2n[nH]c(=O)c3ccccc23)ccc1F)N1CCN(C(=O)C2CC2)CC1 + CNC(=O)c1ccc(Nc2nc(OC3CCCC3)c3c(-c4ccc5nc(C)oc5c4)c[nH]c3n2)c(OC)c1

>  <viability, T/C, %>
77.6

$$$$

get_value(item= CC1COCCN1c1cc(C2(S(C)(=N)=O)CC2)nc(-c2ccnc3[nH]ccc23)n1 (stereo unspecified) + CN1CCN(c2cc(C(=O)Nc3cc4cc(-c5cnn(C)c5)ccc4cn3)ccn2)CC1 , readout=viability, T/C) returns 2.33

get_value(item= CCN1CCN(Cc2ccc(Nc3ncc(F)c(-c4cc(F)c5nc(C)n(C(C)C)c5c4)n3)nc2)CC1 + CNC(=O)c1ccc(Nc2nc(OC3CCCC3)c3c(-c4ccc5nc(C)oc5c4)c[nH]c3n2)c(OC)c1 , readout=viability, T/C) returns 63.1

get_value(item= COc1cccc2c1C(=O)c1c(O)c3c(c(O)c1C2=O)CC(O)(C(=O)CO)CC3OC1CC(N)C(O)C(C)O1 (stereo unspecified) + CN1CCN(c2cc(C(=O)Nc3cc4cc(-c5cnn(C)c5)ccc4cn3)ccn2)CC1 , readout=viability, T/C) returns 1.22
